Molecular target: OCT1 (SLC22A1) (Homo sapiens, UniProt O15245)
Test: in vitro
Conditions: HEK293 cells that express human OCT1, probe 4-(4-(dimethylamino)styryl)-N-methylpyridinium

compound | inhibition at 100 µM
CC(CN(C)C)CN1c2ccccc2CCc2ccccc21 (stereo unspecified) | 77.2%
CN1[C@@H]2C[C@@H](OC(=O)[C@H](CO)c3ccccc3)C[C@H]1[C@@H]1O[C@@H]12 | 43.9%
O=C1Nc2ccc(Cl)cc2[C@@](C#CC2CC2)(C(F)(F)F)O1 | 37%
COc1cc(NS(C)(=O)=O)ccc1Nc1c2ccccc2nc2ccccc12 | 68.4%
CCC1(c2ccccc2)C(=O)NC(=O)NC1=O | -6%
C[C@](N)(Cc1ccc(O)c(O)c1)C(=O)O | -7.2%

* * *

Molecular target: OCT1 (SLC22A1) (Homo sapiens)
Sequence (O15245 whole entry): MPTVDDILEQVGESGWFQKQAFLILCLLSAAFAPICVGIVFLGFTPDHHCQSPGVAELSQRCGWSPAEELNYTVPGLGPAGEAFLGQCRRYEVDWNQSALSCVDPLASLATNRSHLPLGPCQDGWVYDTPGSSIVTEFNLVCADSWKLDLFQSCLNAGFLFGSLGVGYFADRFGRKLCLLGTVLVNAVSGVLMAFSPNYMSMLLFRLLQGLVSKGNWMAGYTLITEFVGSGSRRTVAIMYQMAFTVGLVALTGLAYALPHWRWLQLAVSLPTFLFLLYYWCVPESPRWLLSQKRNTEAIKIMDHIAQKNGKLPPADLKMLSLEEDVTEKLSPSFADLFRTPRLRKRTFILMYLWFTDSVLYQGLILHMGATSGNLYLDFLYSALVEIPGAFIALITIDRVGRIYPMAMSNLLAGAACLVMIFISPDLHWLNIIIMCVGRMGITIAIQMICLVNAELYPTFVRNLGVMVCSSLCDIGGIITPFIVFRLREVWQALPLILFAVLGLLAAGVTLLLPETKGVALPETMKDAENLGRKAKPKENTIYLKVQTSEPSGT
Experiment: in vitro
Details: HEK293 cells that express human OCT1, probe 4-(4-(dimethylamino)styryl)-N-methylpyridinium
yes means recorded inhibition at 100 µM is 30% or above; no means it is below 30%.

compound | category-label
CC(=O)S[C@@H]1CC2=CC(=O)CC[C@]2(C)[C@H]2CC[C@@]3(C)[C@@H](CC[C@@]34CCC(=O)O4)[C@H]12 [SPIRONOLACTONE] | yes
CC1=C(CC(=O)O)c2cc(F)ccc2/C1=C\c1ccc([S+](C)[O-])cc1 (centres undefined) | no
CC(=O)N[C@H]1[C@H]([C@H](O)[C@H](O)CO)OC(C(=O)O)=C[C@@H]1N=C(N)N [ZANAMIVIR] | no
N[C@@H](Cc1ccc(O)c(O)c1)C(=O)O [LEVODOPA] | no
CC(C)C(=O)Nc1ccc([N+](=O)[O-])c(C(F)(F)F)c1 [FLUTAMIDE] | yes
C[C@]12CC[C@@H]3c4ccc(O)cc4CC[C@H]3[C@@H]1CC[C@@H]2O [ESTRADIOL] | yes
CC[C@H](C)C(=O)O[C@H]1C[C@H](O)C=C2C=C[C@H](C)[C@H](CC[C@@H](O)C[C@@H](O)CC(=O)O)[C@H]21 [PRAVASTATIN] | no
Clc1ccccc1C(c1ccccc1)(c1ccccc1)n1ccnc1 [CLOTRIMAZOLE] | yes
CC(C)(C)NC(=O)[C@@H]1CN(Cc2cccnc2)CCN1C[C@@H](O)C[C@@H](Cc1ccccc1)C(=O)N[C@H]1c2ccccc2C[C@H]1O | yes
CCCC(=O)Nc1ccc(OCC(O)CNC(C)C)c(C(C)=O)c1 (centres undefined) [ACEBUTOLOL] | yes
COCCc1ccc(OCC(O)CNC(C)C)cc1 (centres undefined) [METOPROLOL] | yes
COc1cccc(C2(O)CCCCC2CN(C)C)c1 (centres undefined) [TRAMADOL] | yes
NCCCC(N)(C(=O)O)C(F)F (centres undefined) [EFLORNITHINE] | no
NS(=O)(=O)c1cc2c(cc1Cl)NCNS2(=O)=O [HYDROCHLOROTHIAZIDE] | no
CC(C)(C)NC[C@H](O)COc1nsnc1N1CCOCC1 [TIMOLOL] | yes
CCN(CC)CCNC(=O)c1ccc(NC(C)=O)cc1 [ACECAINIDE] | no
O=C1NC(=O)C(c2ccccc2)(c2ccccc2)N1 [PHENYTOIN] | no
Cc1cn([C@H]2C[C@H](N=[N+]=[N-])[C@@H](CO)O2)c(=O)[nH]c1=O [ZIDOVUDINE] | no
COc1cc2nc(N3CCN(C(=O)C4COc5ccccc5O4)CC3)nc(N)c2cc1OC (centres undefined) [DOXAZOSIN] | yes

* * *

Target: OCT1 (SLC22A1) (Homo sapiens)
Assay: in vitro
Conditions: HEK293 cells that express human OCT1, probe 4-(4-(dimethylamino)styryl)-N-methylpyridinium

molecule | inhibition at 100 µM / %
Cn1c(=O)c2c(ncn2C)n(C)c1=O | -1.4
CN1C(=O)CN=C(c2ccccc2)c2cc(Cl)ccc21 | 5
C[C@]12C[C@H](O)[C@H]3[C@@H](CCC4=CC(=O)CC[C@@]43C)[C@@H]1CC[C@@H]2C(=O)CO | 33.5
CCCC1O[C@@H]2C[C@H]3[C@@H]4CCC5=CC(=O)C=C[C@]5(C)[C@H]4[C@@H](O)C[C@]3(C)[C@]2(C(=O)CO)O1 (stereo partly drawn) [BUDESONIDE] | 38.2
CCC(C)(C)C(=O)O[C@H]1C[C@@H](C)C=C2C=C[C@H](C)[C@H](CC[C@@H]3C[C@@H](O)CC(=O)O3)[C@H]21 | 22.6
CN(C)CCCN1c2ccccc2CCc2ccc(Cl)cc21 | 85.3
C[C@]12C=CC(=O)C=C1CC[C@@H]1[C@@H]2C(=O)C[C@@]2(C)[C@H]1CC[C@]2(O)C(=O)CO | 23.3
CN(Cc1cnc2nc(N)nc(N)c2n1)c1ccc(C(=O)N[C@@H](CCC(=O)O)C(=O)O)cc1 [METHOTREXATE] | 26.3

* * *

The reader will find reported inhibition at 100 µM values listed item by item below.
Target: OCT1 (SLC22A1) (Homo sapiens, UniProt O15245)
Assay: in vitro
Conditions: HEK293 cells that express human OCT1, probe 4-(4-(dimethylamino)styryl)-N-methylpyridinium

compound | tgt | inhibition at 100 µM (%)
CCCN(CCC)S(=O)(=O)c1ccc(C(=O)O)cc1 [PROBENECID] | OCT1 (SLC22A1) (Homo sapiens, UniProt O15245) | -8.9
CC(C)NCC(O)c1cc(O)cc(O)c1 (stereo not drawn) [METAPROTERENOL] | OCT1 (SLC22A1) (Homo sapiens, UniProt O15245) | 12.6
CCOC(=O)C1=C(C)NC(C)=C(C(=O)OC)C1c1cccc(Cl)c1Cl (stereo not drawn) [FELODIPINE] | OCT1 (SLC22A1) (Homo sapiens, UniProt O15245) | 15.5
NCC1(CC(=O)O)CCCCC1 [GABAPENTIN] | OCT1 (SLC22A1) (Homo sapiens, UniProt O15245) | 15.1
Nc1nc(O)c2ncn(COC(CO)CO)c2n1 [GANCICLOVIR] | OCT1 (SLC22A1) (Homo sapiens, UniProt O15245) | 10.5
C=C[C@H]1C[N@@]2CC[C@H]1C[C@H]2[C@H](O)c1ccnc2ccc(OC)cc12 [QUININE] | OCT1 (SLC22A1) (Homo sapiens, UniProt O15245) | 60.2
CC(=O)CC(c1ccccc1)c1c(O)c2ccccc2oc1=O (stereo not drawn) [WARFARIN] | OCT1 (SLC22A1) (Homo sapiens, UniProt O15245) | 4
CC(C)NC[C@H](O)c1ccc(O)c(O)c1 | OCT1 (SLC22A1) (Homo sapiens, UniProt O15245) | 15.6
NCC(CC(=O)O)c1ccc(Cl)cc1 (stereo not drawn) [BACLOFEN] | OCT1 (SLC22A1) (Homo sapiens, UniProt O15245) | 20.7
CCOc1cc(CC(=O)N[C@@H](CC(C)C)c2ccccc2N2CCCCC2)ccc1C(=O)O [REPAGLINIDE] | OCT1 (SLC22A1) (Homo sapiens, UniProt O15245) | 76.4
CC(C)[N+]1(C)[C@@H]2CC[C@H]1C[C@@H](OC(=O)C(CO)c1ccccc1)C2 (stereo partly drawn) | OCT1 (SLC22A1) (Homo sapiens, UniProt O15245) | 43.4
CN1[C@@H]2CC[C@H]1C[C@@H](OC(=O)C(CO)c1ccccc1)C2 (stereo partly drawn) [ATROPINE] | OCT1 (SLC22A1) (Homo sapiens, UniProt O15245) | 76.5
CCOC(=O)[C@H](CCc1ccccc1)N[C@@H](C)C(=O)N1CCC[C@H]1C(=O)O | OCT1 (SLC22A1) (Homo sapiens, UniProt O15245) | 14.6
Cn1c(=O)c2[nH]cnc2n(C)c1=O [THEOPHYLLINE] | OCT1 (SLC22A1) (Homo sapiens, UniProt O15245) | -4.4
CCOC(=O)N1CCC(=C2c3ccc(Cl)cc3CCc3cccnc32)CC1 [LORATADINE] | OCT1 (SLC22A1) (Homo sapiens, UniProt O15245) | 51.8
Cc1ccc(-c2cc(C(F)(F)F)nn2-c2ccc(S(N)(=O)=O)cc2)cc1 [CELECOXIB] | OCT1 (SLC22A1) (Homo sapiens, UniProt O15245) | 7.7
CC(C)NCC(O)COc1cccc2ccccc12 (stereo not drawn) [PROPRANOLOL] | OCT1 (SLC22A1) (Homo sapiens, UniProt O15245) | 55.4
Oc1ncnc2[nH]ncc12 [ALLOPURINOL] | OCT1 (SLC22A1) (Homo sapiens, UniProt O15245) | 7.7
COc1cc2c(cc1O)CC[C@@H]1[C@@H]2CC[C@]2(C)[C@@H](O)CC[C@@H]12 [2-METHOXYESTRADIOL] | OCT1 (SLC22A1) (Homo sapiens, UniProt O15245) | 74.3
CCCC(CCC)C(=O)O [VALPROIC ACID] | OCT1 (SLC22A1) (Homo sapiens, UniProt O15245) | 19.6
CCS(=O)(=O)CCn1c([N+](=O)[O-])cnc1C [TINIDAZOLE] | OCT1 (SLC22A1) (Homo sapiens, UniProt O15245) | 14.2
COc1cc([C@@H]2c3cc4c(cc3[C@@H](O[C@@H]3O[C@@H]5CO[C@@H](C)O[C@H]5[C@H](O)[C@H]3O)[C@H]3COC(=O)[C@H]23)OCO4)cc(OC)c1O [ETOPOSIDE] | OCT1 (SLC22A1) (Homo sapiens, UniProt O15245) | 7.5
CN(C)CCC=C1c2ccccc2CCc2ccccc21 [AMITRIPTYLINE] | OCT1 (SLC22A1) (Homo sapiens, UniProt O15245) | 78.5
CN(C)CC/C=C1/c2ccccc2Sc2ccc(Cl)cc21 [CHLORPROTHIXENE] | OCT1 (SLC22A1) (Homo sapiens, UniProt O15245) | 65.4
CC(=O)N1CCN(c2ccc(OCC3COC(Cn4ccnc4)(c4ccc(Cl)cc4Cl)O3)cc2)CC1 (stereo not drawn) [KETOCONAZOLE] | OCT1 (SLC22A1) (Homo sapiens, UniProt O15245) | 82.3
CCOc1nc2cccc(C(=O)O)c2n1Cc1ccc(-c2ccccc2-c2nnn[nH]2)cc1 | OCT1 (SLC22A1) (Homo sapiens, UniProt O15245) | 6.3
NC(N)=NCCCCN=C(N)N [ARCAINE] | OCT1 (SLC22A1) (Homo sapiens, UniProt O15245) | 4.5
CC(C)NCC(O)c1ccc(NS(C)(=O)=O)cc1 (stereo not drawn) [SOTALOL] | OCT1 (SLC22A1) (Homo sapiens, UniProt O15245) | 31.8
C[C@H]1O[C@H](O[C@H]2[C@H](O)[C@@H](O)[C@@H](O[C@H]3[C@H](O)[C@@H](O)C(O)O[C@@H]3CO)O[C@@H]2CO)[C@H](O)[C@@H](O)[C@@H]1N[C@H]1C=C(CO)[C@@H](O)[C@H](O)[C@H]1O (stereo partly drawn) [ACARBOSE] | OCT1 (SLC22A1) (Homo sapiens, UniProt O15245) | 3.9
CC(C)OC(=O)C(C)(C)Oc1ccc(C(=O)c2ccc(Cl)cc2)cc1 [FENOFIBRATE] | OCT1 (SLC22A1) (Homo sapiens, UniProt O15245) | 0.2
Cc1ccccc1C(OCCN(C)C)c1ccccc1 (stereo not drawn) [ORPHENADRINE] | OCT1 (SLC22A1) (Homo sapiens, UniProt O15245) | 77.6
N=C(N)c1ccc(CNC(=O)[C@@H]2CCN2C(=O)[C@H](NCC(=O)O)C2CCCCC2)cc1 | OCT1 (SLC22A1) (Homo sapiens, UniProt O15245) | -0.2
CC/C(=C(\c1ccccc1)c1ccc(OCCN(C)C)cc1)c1ccccc1 [TAMOXIFEN] | OCT1 (SLC22A1) (Homo sapiens, UniProt O15245) | 72.1
CC[C@@H]1C(=O)OC[C@@H]1Cc1cncn1C [PILOCARPINE] | OCT1 (SLC22A1) (Homo sapiens, UniProt O15245) | 17
CCN(CC)CCCC(C)Nc1ccnc2cc(Cl)ccc12 (stereo not drawn) [CHLOROQUINE] | OCT1 (SLC22A1) (Homo sapiens, UniProt O15245) | 46
CC(C)(Cc1c[nH]c2ccccc12)NCC(O)COc1ccccc1C#N (stereo not drawn) [BUCINDOLOL] | OCT1 (SLC22A1) (Homo sapiens, UniProt O15245) | 84.6
OC[C@@H](O)[C@@H](O)[C@H](O)[C@H](O)CO [MANNITOL] | OCT1 (SLC22A1) (Homo sapiens, UniProt O15245) | -1.4
COc1ccc(CCN(C)CCCC(C#N)(c2cc(OC)c(OC)c(OC)c2)C(C)C)cc1OC (racemic) [METHOXYVERAPAMIL] | OCT1 (SLC22A1) (Homo sapiens, UniProt O15245) | 78.1

Numbers sourced from ChEMBL document CHEMBL1140113.
